substrate: C[C@H](NC(=O)CCC(=O)O)C(=O)N[C@@H](C)C(=O)N1CCC[C@H]1C(=O)N[C@@H](Cc1ccccc1)C(=O)Nc1ccc([N+](=O)[O-])cc1; test: Amidase activity: hydrolysis of p-nitroanilide peptide substrate; type: biochemical, Bacillus subtilis; settings: other: 0% DMF, 0.1M Tris-HCl, 10 mM CaCl2, pH 8, 37° C.

{"Protein": "Bacillus subtilis subtilisin E variant 3M (D60N + Q103R + N218S) (Bacillus subtilis subsp. subtilis str. 168; A256V/D166N/N324S/Q209R) (protein, each contain 275 residues; made in house; host or cells: Bacillus subtilis DB428 (vector pKWC), secreted into the medium) AQSVPYGISQIKAPALHSQGYTGSNVKVAVIDSGIDSSHPDLNVRGGASFVPSETNPYQNGSSHGTHVAGTIAALNNSIGVLGVAPSASLYAVKVLDSTGSGRYSWIINGIEWAISNNMDVINMSLGGPTGSTALKTVVDKAVSSGIVVVAAAGNEGSSGSTSTVGYPAKYPSTIAVGAVNSSNQRASFSSAGSELDVMAPGVSIQSTLPGGTYGAYSGTSMATPHVAGAAALILSKHPTWTNAQVRDRLESTATYLGNSFYYGKGLINVQAAAQ", "Km": "110 µM"}
{"Protein": "Bacillus subtilis subtilisin E variant 6M (D60N + Q103R + N218S + D97G + E156G + N181S) (Bacillus subtilis subsp. subtilis str. 168; … (protein) AQSVPYGISQIKAPALHSQGYTGSNVKVAVIDSGIDSSHPDLNVRGGASFVPSETNPYQNGSSHGTHVAGTIAALNNSIGVLGVAPSASLYAVKVLGSTGSGRYSWIINGIEWAISNNMDVINMSLGGPTGSTALKTVVDKAVSSGIVVVAAAGNGGSSGSTSTVGYPAKYPSTIAVGAVSSSNQRASFSSAGSELDVMAPGVSIQSTLPGGTYGAYSGTSMATPHVAGAAALILSKHPTWTNAQVRDRLESTATYLGNSFYYGKGLINVQAAAQ", "Km": "40 µM"}
{"Protein": "Bacillus subtilis subtilisin E variant 4M (D60N + Q103R + N218S + D97G) (Bacillus subtilis subsp. subtilis str. 168; A256V/D166N/D203G/N324S/Q209R) (protein, each contain 275 residues; made in house; host or cells: Bacillus subtilis DB428 (vector pKWC), secreted into the medium) AQSVPYGISQIKAPALHSQGYTGSNVKVAVIDSGIDSSHPDLNVRGGASFVPSETNPYQNGSSHGTHVAGTIAALNNSIGVLGVAPSASLYAVKVLGSTGSGRYSWIINGIEWAISNNMDVINMSLGGPTGSTALKTVVDKAVSSGIVVVAAAGNEGSSGSTSTVGYPAKYPSTIAVGAVNSSNQRASFSSAGSELDVMAPGVSIQSTLPGGTYGAYSGTSMATPHVAGAAALILSKHPTWTNAQVRDRLESTATYLGNSFYYGKGLINVQAAAQ", "Km": "170 µM"}
{"Protein": "Bacillus subtilis subtilisin E variant 7M (D60N + Q103R + N218S + D97G + E156G + N181S + G131D) (Bacillus subtilis subsp. subtilis str. 168; … (protein) AQSVPYGISQIKAPALHSQGYTGSNVKVAVIDSGIDSSHPDLNVRGGASFVPSETNPYQNGSSHGTHVAGTIAALNNSIGVLGVAPSASLYAVKVLGSTGSGRYSWIINGIEWAISNNMDVINMSLGGPTDSTALKTVVDKAVSSGIVVVAAAGNGGSSGSTSTVGYPAKYPSTIAVGAVSSSNQRASFSSAGSELDVMAPGVSIQSTLPGGTYGAYSGTSMATPHVAGAAALILSKHPTWTNAQVRDRLESTATYLGNSFYYGKGLINVQAAAQ", "Km": "30 µM"}
